Hey, just so you know, these numbers are from paper PMC6010333.

# Test system: DNAPK (Homo sapiens, UniProt P78527)
# Experimental details: DNAPK cell assay
pIC50: −log10 of the molar value.

# Compound string, pIC50
records = [
    ("CC(C)n1c(=O)n(C)c2cnc3cc(F)c(-c4ccc(OCCCN5CCCCC5)nc4)cc3c21", "< 4.52"),
]

----------
# Experimental details: In vivo PK, dog
Property name: half-life (h)

# Compound string, Reported value
rows = [
    ("CC(C)n1c(=O)n(C)c2cnc3cc(F)c(-c4ccc(OCCCN5CCCCC5)nc4)cc3c21", 21.6),
]

----------
# Test system: MDR1 (Pgp) and BCRP
# Experimental details: MDCK_MDR1_BCRP permeability and efflux
# Format: in vitro ADME
# Study conditions: human
Property name: Papp A→B at 90 min, 1 μM (×10⁻⁶ cm/s)

# Compound string, Test system, Property name, Reported value
rows = [
    ("CC(C)n1c(=O)n(C)c2cnc3cc(F)c(-c4ccc(OCCCN5CCCCC5)nc4)cc3c21", "MDR1 (Pgp) and BCRP", "Papp A→B at 90 min, 1 μM", 24.3),
]
